Cited source: patent US8883782B2

test system: Abeta 40 in cerebrospinal fluid (CSF) and brain; experiment: In vivo inhibition of beta-secretase (Abeta 40 reduction in CSF and brain); settings: rat, brain, Abeta 40, 10 mg/kg (10 mpk), after 4 hrs; read-out: Brain A-beta reduction % at 10 mg/kg
For each entry below, report its inhibition in vivo at 10 mg/kg value.
I only need the number, in %, no unit after it.

Item: NC1=N[C@@]2(CO1)c1cc(-c3cccnc3)ccc1Oc1cnc(N3CCC(F)(F)C3)cc12 [Example 138] | inhibition in vivo at 10 mg/kg: 48

Item: NC1=N[C@@]2(CO1)c1cc(-c3cccnc3)ccc1Oc1cnc(N3CCC(F)(F)CC3)cc12 [Example 402] | inhibition in vivo at 10 mg/kg: 28

Item: CC(C)(F)COc1cc(F)c2c(c1)[C@]1(CSC(N)=N1)c1cc(-c3cccnc3F)ccc1O2 [Example 1067] | inhibition in vivo at 10 mg/kg: 55

Item: CC1(C)C=C(c2cc3c(cn2)Oc2ccc(-c4ccc(F)nc4)cc2[C@@]32COC(N)=N2)CCO1 [Example 369] | inhibition in vivo at 10 mg/kg: 31

Item: NC1=N[C@@]2(CO1)c1cc(-c3cccnc3F)ccc1Oc1c(F)cc(-c3ncccn3)cc12 [Example 128] | inhibition in vivo at 10 mg/kg: 57

Item: CC(C)(C#N)COc1cc(F)c2c(c1)[C@]1(COC(N)=N1)c1cc(-c3cccnc3)c(F)cc1O2 [Example 860] | inhibition in vivo at 10 mg/kg: 2

====

Test system: Aβ40 in conditioned medium of cells stably expressing Amyloid Precursor Protein (APP)
Assay: In vitro BACE cell-based assay (Aβ40 in conditioned medium, sandwich ELISA)
Settings: Homo sapiens, HEK293, average IC50; read-out: HEK cell assay
Description: In Vitro BACE Cell-Based Assay The cell-based assay measures inhibition or reduction of Aβ40 in conditioned medium of test compound treated cells expressing amyloid precursor protein. Cells stably expressing Amyloid Precursor Protein (APP) were plated at a density of 40K cells/well in 96 well plates (Costar). […] The IC50 of the compound was calculated from the percent of control or percent inhibition of Aβ 40 as a function of the concentration of the test compound. […]
Property Label: pIC50
Scale: negative log10 of molar concentration, which is what pIC50 denotes.

// compound NC1=N[C@@]2(CS1)c1cc(-c3cccnc3F)ccc1Oc1c2cc(Cl)nc1F [Example 1024] , assay Aβ40 in conditioned medium of cells stably expressing Amyloid Precursor Protein (APP), pIC50 value: 5.84

// compound NC1=N[C@@]2(CO1)c1cc(-c3cncc(Cl)c3)ccc1Oc1cnc(C3CCOCC3)cc12 [Example 242] , assay Aβ40 in conditioned medium of cells stably expressing Amyloid Precursor Protein (APP), pIC50 value: 7.68

// compound NC1=N[C@@]2(CS1)c1cc(-c3cccnc3F)ccc1Oc1c(F)cc(N3C[C@H]4C[C@@H]3CO4)cc12 [Example 1085] , assay Aβ40 in conditioned medium of cells stably expressing Amyloid Precursor Protein (APP), pIC50 value: 7.64

// compound NC1=N[C@@]2(CO1)c1cc(I)ccc1Oc1ncc(Br)cc12 [Example 1016] , assay Aβ40 in conditioned medium of cells stably expressing Amyloid Precursor Protein (APP), pIC50 value: 7.92

// compound NC1=N[C@@]2(CO1)c1cc(-c3ccc(F)nc3)ccc1Oc1c(F)cc(-c3ncccn3)cc12 [Example 289] , assay Aβ40 in conditioned medium of cells stably expressing Amyloid Precursor Protein (APP), pIC50 value: 7.84

// compound CC1(C#Cc2cnc3c(c2)[C@]2(CSC(N)=N2)c2cc(-c4cccc(C#N)c4F)ccc2O3)COC1 [Example 780] , assay Aβ40 in conditioned medium of cells stably expressing Amyloid Precursor Protein (APP), pIC50 value: 6.47

// compound COc1cc(F)c2c(c1)[C@@]1(CSC(N)=N1)c1cc(-c3cnccn3)ccc1O2 [Example 222] , assay Aβ40 in conditioned medium of cells stably expressing Amyloid Precursor Protein (APP), pIC50 value: 5.97

// compound NC1=N[C@@]2(CS1)c1cc(-c3cccnc3F)ccc1Oc1cnc(-c3ccnc(F)c3)cc12 [Example 1000] , assay Aβ40 in conditioned medium of cells stably expressing Amyloid Precursor Protein (APP), pIC50 value: 7.64

====

target: Beta Secretase enzyme (BACE) (Homo sapiens, UniProt P56817); assay: In vitro enzymatic BACE FRET (fluorescence resonance energy transfer) assay; type: biochemical; details: average IC50, enzyme assay; read-out: BACE 1 FRET assay
Sequence (P56817 46-501, species assumed): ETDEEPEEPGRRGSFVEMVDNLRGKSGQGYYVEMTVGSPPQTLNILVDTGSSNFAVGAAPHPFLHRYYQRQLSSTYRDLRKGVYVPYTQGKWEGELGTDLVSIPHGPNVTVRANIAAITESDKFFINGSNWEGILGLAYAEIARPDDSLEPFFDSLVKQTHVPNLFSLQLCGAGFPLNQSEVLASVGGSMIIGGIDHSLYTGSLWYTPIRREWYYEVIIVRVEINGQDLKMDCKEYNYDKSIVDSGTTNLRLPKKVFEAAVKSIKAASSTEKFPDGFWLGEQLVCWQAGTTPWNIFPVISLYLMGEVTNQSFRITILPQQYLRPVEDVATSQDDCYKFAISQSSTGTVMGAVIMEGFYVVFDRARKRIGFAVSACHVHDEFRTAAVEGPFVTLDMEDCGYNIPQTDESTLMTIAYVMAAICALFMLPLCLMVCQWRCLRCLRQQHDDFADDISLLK
Property Label: IC50
Be sure to follow the number with its unit.

// compound NC1=N[C@@]2(CO1)c1cc(-c3cccnc3F)ccc1Oc1ncc(Br)cc12 [Example 1018] , assay Beta Secretase enzyme (BACE) (Homo sapiens, UniProt P56817), IC50 value: 577 nM

// compound N#Cc1cncc(-c2ccc3c(c2)[C@@]2(COC(N)=N2)c2cc(N4CCOCC4)cc(F)c2O3)c1 [Example 558] , assay Beta Secretase enzyme (BACE) (Homo sapiens, UniProt P56817), IC50 value: 1.7 nM

// compound NC1=N[C@@]2(CO1)c1cc(-c3cccnc3N3CCC(F)(F)CC3)ccc1Oc1ncc(N3CCC(F)(F)CC3)cc12 [Example 477] , assay Beta Secretase enzyme (BACE) (Homo sapiens, UniProt P56817), IC50 value: 330 nM

// compound NC1=N[C@@]2(CS1)c1cc(-c3cccnc3F)ccc1Oc1c(F)cc(N3CCC(F)(F)C3)cc12 [Example 1077] , assay Beta Secretase enzyme (BACE) (Homo sapiens, UniProt P56817), IC50 value: 0.3 nM

====

For each entry below, report its IC50 value.
Biological target: Beta Secretase enzyme (BACE) (Homo sapiens)
Test: In vitro enzymatic BACE FRET (fluorescence resonance energy transfer) assay
Type: biochemical
Conditions: average IC50, enzyme assay; read-out: BACE 1 FRET assay
Procedure: In Vitro Enzymatic Bace Fret (Fluorescence Resonance Energy Transfer) Assay (Enzyme Assay Data in the Example Table I) The assay buffer used in this screen is 0.05 M acetate, pH 4.2, 10% DMSO final, 100 uM genapol (which is a nonionic detergent, below its Critical Micelle Concentration). […] The FRET assay is terminated with by addition of Tris buffer, which raises the pH to neutrality, and the fluorescence is determined. […]
I only need the number, in nM, no unit after it.

Item: CC#Cc1cncc(-c2ccc3c(c2)[C@@]2(COC(N)=N2)c2cc(C4=CCOCC4)nc(OC)c2O3)c1 | IC50: 0.6

Item: N#Cc1ncccc1-c1ccc2c(c1)[C@@]1(COC(N)=N1)c1cc(C3=CCOCC3)ncc1O2 | IC50: 11.1

Item: NC1=N[C@]2(CO1)c1cc(-c3cccnc3F)ccc1Oc1nc(F)ccc12 | IC50: 175

Item: COc1cccc(-c2ccc3c(c2)[C@@]2(COC(N)=N2)c2cc(C4=CCOCC4)cnc2O3)c1 | IC50: 3.6

Item: Cc1ccn(-c2cnc3c(c2)[C@]2(COC(N)=N2)c2cc(-c4cccnc4F)ccc2O3)n1 | IC50: 3.5

Item: CC#Cc1cncc(-c2ccc3c(c2)[C@@]2(COC(N)=N2)c2cc(C#CC4(C)COC4)cnc2O3)c1 | IC50: 0.7

Item: NC1=N[C@@]2(CO1)c1cc(-c3cccnc3F)ccc1Oc1c2cc([C@H]2CCCCO2)nc1F | IC50: 0.5

====

biological target: Beta Secretase enzyme (BACE) (Homo sapiens, UniProt P56817); experiment: In vitro enzymatic BACE FRET (fluorescence resonance energy transfer) assay; type: biochemical; conditions: average IC50, enzyme assay; read-out: BACE 1 FRET assay
Property Label: pIC50
Scale: negative log10 of molar concentration, which is what pIC50 denotes.

// compound COC(C)(C)COc1cnc2c(c1)[C@]1(COC(N)=N1)c1cc(-c3cc(Cl)ccc3F)ccc1O2 , assay Beta Secretase enzyme (BACE) (Homo sapiens, UniProt P56817), pIC50 value: 9.15

// compound COc1ncccc1-c1ccc2c(c1)[C@@]1(COC(N)=N1)c1cc(-c3ccnc(F)c3)ncc1O2 , assay Beta Secretase enzyme (BACE) (Homo sapiens, UniProt P56817), pIC50 value: 7.47

// compound NC1=N[C@]2(CO1)c1cc(Br)ccc1Oc1c(F)cc(Cl)nc12 , assay Beta Secretase enzyme (BACE) (Homo sapiens, UniProt P56817), pIC50 value: 5.09

// compound NC1=NC2(CO1)c1cc(-c3cccnc3)ccc1Oc1c2cc(C2CCOCC2)nc1F (stereo not shown) , assay Beta Secretase enzyme (BACE) (Homo sapiens, UniProt P56817), pIC50 value: 8.25

====

For each entry below, report its IC50 value.
molecular target: Beta Secretase enzyme (BACE) (Homo sapiens); test: In vitro enzymatic BACE FRET (fluorescence resonance energy transfer) assay; assay type: biochemical; conditions: average IC50, enzyme assay; read-out: BACE 1 FRET assay
I only need the number, in nM, no unit after it.

Item: NC1=N[C@@]2(CO1)c1cc(-c3cccnc3F)ccc1Oc1cc(F)c(C3=CCOCC3)cc12 [Example 320] | IC50: 6.6

Item: Cc1cc(-c2ccc3c(c2)[C@@]2(COC(N)=N2)c2cc(-c4cccnc4)ncc2O3)cnc1F [Example 230] | IC50: 8.1

Item: Cc1ccnc(F)c1-c1ccc2c(c1)[C@@]1(COC(N)=N1)c1cc(N3CCOC(C)(C)C3)cnc1O2 [Example 482] | IC50: 3.4

Item: Cc1ccn(-c2cnc3c(c2)[C@]2(COC(N)=N2)c2cc(-c4cccnc4)ccc2O3)n1 [Example 1022] | IC50: 7.2

Item: NC1=N[C@@]2(CO1)c1cc(-c3cccnc3F)ccc1Oc1c(F)cc(-c3ccnc(F)c3)cc12 [Example 451] | IC50: 0.5

Item: NC1=N[C@@]2(CO1)c1cc(-c3cccnc3F)c(F)cc1Oc1c(F)cc(C3CCOCC3)cc12 [Example 872] | IC50: 0.6

Item: NC1=N[C@]2(CS1)c1cc(-c3cccnc3F)ccc1Oc1ncc(C3=CCOCC3)cc12 [Example 577] | IC50: 1.7

Item: CC1(C#Cc2cc3c(cn2)Oc2ccc(-c4c(F)ccnc4F)cc2[C@@]32COC(N)=N2)COC1 [Example 957] | IC50: 1.2

Item: NC1=N[C@@]2(CS1)c1cc(-c3cccnc3F)ccc1Oc1cnc([C@@H]3CCCOC3)cc12 [Example 931] | IC50: 21.6

Item: CC(C)(O)C#Cc1cncc(-c2ccc3c(c2)[C@@]2(COC(N)=N2)c2cc(-c4ccnc(F)c4)ncc2O3)c1 [Example 817] | IC50: 13.5

Item: Cc1nn(C)cc1-c1cccc(-c2ccc3c(c2)[C@@]2(COC(N)=N2)c2cc(C4=CCOCC4)ncc2O3)c1 [Example 255] | IC50: 22.3

Item: CN(C)c1cc2c(cn1)Oc1ccc(-c3cccnc3F)cc1C21CSC(N)=N1 (stereo not drawn) [Example 693] | IC50: 10.5

Item: NC1=N[C@@]2(CO1)c1cc(-c3c(F)ccnc3F)ccc1Oc1cnc([C@@H]3CCCOC3)cc12 [Example 912] | IC50: 25.1

Item: CC1(C)C[C@@H](c2cnc3c(c2)[C@]2(COC(N)=N2)c2cc(-c4cncc(Cl)c4)ccc2O3)CCO1 [Example 466] | IC50: 2.1

Item: NC1=N[C@@]2(CO1)c1cc(-c3ccc(F)nc3)ccc1Oc1c(F)cc(OC[C@H]3CC3(F)F)cc12 [Example 261] | IC50: 6.8

Item: CC1(C#Cc2cnc3c(c2)[C@]2(CSC(N)=N2)c2cc(-c4cnccc4F)ccc2O3)COC1 [Example 727] | IC50: 4.1

Item: NC1=N[C@@]2(CO1)c1cc(-c3cc(Cl)ccc3F)ccc1Oc1ncc(C3=CCCOC3)cc12 [Example 172] | IC50: 0.4

Item: NC1=NC2(CS1)c1cc(-c3cccnc3F)ccc1Oc1c2cc(-c2cccnc2F)nc1F (stereo not drawn) [Example 682] | IC50: 0.9

Item: COc1ccc2c(c1)[C@@]1(COC(N)=N1)c1cc(C3(F)CCOCC3)cc(F)c1O2 [Example 939] | IC50: 1710

Item: NC1=N[C@@]2(CO1)c1cc(-c3cccnc3F)ccc1Oc1c(F)cc(OCCF)cc12 [Example 1043] | IC50: 1

Item: Cc1ccc(-c2cnc3c(c2)[C@]2(CSC(N)=N2)c2cc(-c4cccnc4F)ccc2O3)cn1 [Example 582] | IC50: 2

Item: NC1=N[C@@]2(CO1)c1cc(-c3cccnc3)ccc1Oc1c2cc(-c2ccnc(F)c2)nc1F [Example 491] | IC50: 2

Item: CC1(C#Cc2cc3c(nc2F)Oc2ccc(-c4cncc(F)c4)cc2[C@@]32COC(N)=N2)COC1 [Example 907] | IC50: 1.1

Item: NC1=N[C@@]2(CS1)c1cc(-c3cccnc3)ccc1Oc1c2cc(-c2cccnc2)nc1F [Example 1031] | IC50: 0.3

Item: CC1(COc2cc(F)c3c(c2)[C@]2(CSC(N)=N2)c2cc(-c4cncnc4)c(F)cc2O3)COC1 [Example 875] | IC50: 0.5

Item: CC#Cc1cncc(-c2ccc3c(c2)[C@@]2(COC(N)=N2)c2cc(-c4cnn(C)c4)cc(F)c2O3)c1 [Example 947] | IC50: 0.4

Item: COc1ccnc(F)c1-c1ccc2c(c1)[C@@]1(COC(N)=N1)c1cc(-c3ccnc(F)c3)ncc1O2 [Example 681] | IC50: 0.5

Item: CC(C)(C)COc1ccc2c(c1)[C@@]1(COC(N)=N1)c1cc(C3=CCOC(C)(C)C3)cnc1O2 [Example 504] | IC50: 7.6

Item: NC1=N[C@@]2(CS1)c1cc(-c3cccnc3)ccc1Oc1ncc(C3=CCCOC3)cc12 [Example 959] | IC50: 1

Item: NC1=N[C@@]2(CO1)c1cc(-c3cccnc3F)ccc1Oc1cc(F)c(-c3ccncc3)cc12 [Example 321] | IC50: 20.3
